The measurements presented in this section are drawn from PubChem BioAssay (NCI).

Give measured growth for each item. Keep answers brief.
# System: LOX IMVI melanoma
# PROTOCOL NOTES: NCI-60 one-dose screen, 48 h (100 = growth as untreated, 0 = no growth, -100 = all killed)
# ASSAY SETUP: 10 µM
The panel holds about 83,000 compounds, 20% with a hit somewhere; the sample as a whole holds those more often. *1 amine or outer side, *2 acyl side, *3 side chain or, on linkers, in order; H or OH if unused. Where a SMILES comes first, the peptide text is derived from it. [ ]: non-standard residue; d: D form. The star is where a group is joined. X5 = CCC(=O)CC1CC(C)CC(C(=O)[*:2])N1[*:1]; X4 = CCCCCCCCC(C)C(=O)*; Aib = CC(C)(N)C(=O)O; X6 = CC(CN(C)CCO)N*
Give bare numbers, in %.

Example entries and their recorded answers appear below.
compound="CCCCCCCCC(C)C(=O)N1CCCC1C(=O)N1C(CC(=O)CC)CC(C)CC1C(=O)NC(C)C(=O)NC(C)(C)C(=O)NC(C)(C)C(=O)NC(C(=O)NC(C)C(=O)NC(C)(C)C(=O)NC(C)(C)C(=O)NC(C)CN(C)CCO)C(C)CC (stereo not given) (X4-P[X5]A[Aib][Aib]IA[Aib][Aib]-X6; configuration not given here)" reported_property=growth scale_unit=% endpoint_value=-69.5
compound=c1ccc(-c2cc3cc4ccccc4cn3c2)cc1 reported_property=growth scale_unit=% endpoint_value=86
compound="CC(/C=N/NC(N)=S)Cc1ccc(C(C)C)cc1 (stereo not given)" reported_property=growth scale_unit=% endpoint_value=79.5
compound=O=S(=O)(O)c1cnccn1 reported_property=growth scale_unit=% endpoint_value=98
compound=O=C(c1ccc(O)c(Br)c1)c1ccc(O)c(Br)c1 reported_property=growth scale_unit=% endpoint_value=108

For each of the items listed, what is its growth?
1. O/N=C1\c2ccccc2-c2ccc(F)cc21
2. Oc1ccc(Cl)cc1Cc1cc(Cl)ccc1O
3. COc1ccc(/C=C2/C(=O)ON=C2C)cc1
4. Oc1ccc(Br)cc1Sc1cc(Br)ccc1O
5. O=C1C=Cc2ccccc2/C1=C/c1nc(-c2ccccc2)oc1O

[96.6, 42.9, 99.4, 43.6, 84.8]

====

# Test system: SK-MEL-28 melanoma
# PROTOCOL NOTES: NCI-60 one-dose screen, 48 h (100 = growth as untreated, 0 = no growth, -100 = all killed)
# ASSAY SETUP: 10 µM unless noted
About 83,000 compounds went through this panel and 20% of them were active in at least one assay; those are over-represented in the sample as a whole.
Give measured growth for each item. Keep answers brief.
Numbers only, in %.

Example entries and their recorded answers appear below.
molecule="CCCc1cc(=O)oc2c3c(c4c(c12)OC(C)(C)CC4)OC(C)[C@H](C)[C@@H]3O (some centres not stated)" endpoint_value=93.1
molecule="CCOc1ccc(C(CN2CCOCC2)C(C)=O)cc1OC (configuration not stated)" endpoint_value=102
molecule=C1=C(c2ccccc2)c2ccccc2C1 endpoint_value=116

For each of the items listed, what is its growth?
1. Cc1cc(N/N=C/c2ccccn2)nc2ccccc12
2. O=[N+]([O-])c1ccc2c(c1)Cc1ccccc1-2
3. Cc1cc(C)c(C#N)c(Sc2nc(C)c([N+](=O)[O-])c(C)c2C#N)n1
4. O=C1C=CC(O)=CC1=P(c1ccccc1)(c1ccccc1)c1ccccc1
5. C[n+]1ccccc1C[n+]1ccccc1
6. CCOc1cc(F)c([N+](=O)[O-])cc1[N+](=O)[O-]

[18.1, 110, 78.7, 102, 98.3, 70.1]

====

Give measured growth for each item. Keep answers brief.
# System: HT29 colon
# PROTOCOL NOTES: NCI-60 one-dose screen, 48 h (100 = growth as untreated, 0 = no growth, -100 = all killed)
# ASSAY SETUP: 10 µM unless noted
About 83,000 compounds went through this panel and 20% of them were active in at least one assay; those are over-represented in the sample as a whole.
One number for each entry, in %.

molecule=CCc1cnc2ccccc2c1/C=C/c1ccc(N(C)C)cc1 target_or_test_system="HT29 colon" scale_unit=% endpoint_value=5.62

For each of the items listed, what is its growth?
1. CC(C)N=C(N)/N=C(\N)Nc1ccc2ccc3ccccc3c2c1
2. OC(c1cc(C23CC4CC(CC(C4)C2)C3)nc2c(Cl)cc(Cl)cc12)C1CCCCN1 (stereo unspecified)

1. -84.4
2. -89.8

For each of the items listed, what is its growth?
1. O=[N+]([O-])C=C(c1ccccc1)c1ccccc1
2. Cc1ccc(/C=C2\CNC/C(=C\c3ccc(C)cc3)C2=O)cc1
3. COC(=O)c1cc([N+](=O)[O-])cc([N+](=O)[O-])c1Cl

[91.7, -35.8, -85.2]

====

# Test system: NCI/ADR-RES ovarian
# PROTOCOL NOTES: NCI-60 one-dose screen, 48 h
# ASSAY SETUP: 10 µM unless noted
# Procedure: Growth inhibition of the NCI/ADR-RES human […] tumor cell line is measured as a screen for anti-cancer activity. Cells are grown in 96 well plates and exposed to the test compound for 48 hours. Compounds are tested at a single concentration, which is 10^-5 M for most compounds. The reported endpoint is percent growth (GI% or GIPRCNT), where numbers from 0 - 100% represent growth inhibition, and numbers from -100% - 0 represent cell death. For example, a value of 40 represents 60% growth inhibition. […]
This is part of a sample that, as a whole, favours compounds with a hit. Of some 83,000 tested, about 20% had one in any assay. Active and inactive are the calls of the source. Rule for the calls: active = growth percent below 10; inactive = the rest.
// allowed return values: yes (1) for active, no (0) for inactive

Could you check what this test reported for CCOC(=O)C1=C(C(=O)c2ccccc2)C(c2cccc([N+](=O)[O-])c2)C(C(=O)c2ccccc2)=C(C(=O)OCC)N1 ? no (0)

Could you check what this test reported for O=C(O)c1cccc2cccc(-c3c4ccc(=O)c(O)c-4oc4c(O)c(O)ccc34)c12 ? no (0)

Could you check what this test reported for CCCCCCCCc1cc(Cl)c(O)c(Cl)c1 ? no (0)

Could you check what this test reported for Cn1ccc(=Nc2ccc(NC(=O)c3ccc(N=c4ccn(C)c5ccc([N+](=O)[O-])cc45)cc3)cc2)cc1 ? no (0)

Could you check what this test reported for Clc1ccc(-n2ncc3c(NCCCN4CCOCC4)ncnc32)cc1 ? no (0)

Could you check what this test reported for CCOC(=O)/C(=C\c1ccc2ccccc2c1)P(=O)(OCC)OCC ? no (0)

====

# System: NCI-H23 lung
# PROTOCOL NOTES: NCI-60 one-dose screen, 48 h
# ASSAY SETUP: 10 µM unless noted
# Protocol: Growth inhibition of the NCI-H23 human Non-Small Cell Lung tumor cell line is measured as a screen for anti-cancer activity. Cells are grown in 96 well plates and exposed to the test compound for 48 hours. Compounds are tested at a single concentration, which is 10^-5 M for most compounds. The reported endpoint is percent growth (GI% or GIPRCNT), where numbers from 0 - 100% represent growth inhibition, and numbers from -100% - 0 represent cell death. […]
About 83,000 compounds went through this panel and 20% of them were active in at least one assay; those are over-represented in the sample as a whole. The source made the active and inactive calls. Rule for the calls: active = growth percent below 10; inactive = the rest.
// allowed return values: yes for active, no for inactive

compound=COc1c(C)c2c(c(O)c1C/C=C(\C)CCC(=O)O)C(=O)OC2 label=no
compound=O=C(OC12CC3CC(CC(C3)C1)C2)c1ccc(NCc2cc(O)ccc2O)cc1 label=yes
compound=Nc1nc(N)c2cc(Sc3cccc(C(F)(F)F)c3)ccc2n1 label=no
compound="CCCCCCC1N=C(N)N=C(N)N1c1cccc(Cl)c1 (stereo unspecified)" label=yes
compound=Nc1cc(-c2ccccc2)ccc1O label=no

// switching to the query compound
Could you check what this test reported for Oc1ccc2ccccc2c1N=Nc1nccs1 ? no

====

# Tested on: ACHN renal
# PROTOCOL NOTES: NCI-60 one-dose screen, 48 h
# ASSAY SETUP: 10 µM unless noted
This is part of a sample that, as a whole, favours compounds with a hit. Of some 83,000 tested, about 20% had one in any assay. The source made the active and inactive calls. Rule for the calls: active = growth percent below 10; inactive = the rest.
// allowed return values: active, inactive

compound=Nc1cccc2cccc([N+](=O)[O-])c12 target_or_test_system="ACHN renal" label=inactive
compound=Oc1ccc(Cl)cc1C(c1cc(Cl)ccc1O)C(Cl)(Cl)Cl target_or_test_system="ACHN renal" label=active
compound="CCN(CC)CC(O)CNc1ccc(NCC2CO2)c2c1C(=O)c1ccccc1C2=O (configuration not stated)" target_or_test_system="ACHN renal" label=active
compound=COc1ccc2c(c1)c(CC(=O)O)c(C)n2C(=O)c1ccc(Cl)cc1 target_or_test_system="ACHN renal" label=inactive
compound=C/C(=N\NC(=S)N1CC2CCC(CC2)C1)c1ccccn1 target_or_test_system="ACHN renal" label=inactive
compound="CCOc1ccc(C(CN2CCOCC2)C(C)=O)cc1OC (configuration not stated)" target_or_test_system="ACHN renal" label=inactive
compound=CCNc1nnnn1CC target_or_test_system="ACHN renal" label=inactive
compound=Cc1nc(Sc2nc3ccc([N+](=O)[O-])cc3s2)sc1C target_or_test_system="ACHN renal" label=inactive
compound=CCCCCCCCCCCCNCCCc1ccccc1 target_or_test_system="ACHN renal" label=inactive
compound="CCCCCC/C=C1\\CCC(CN2CCCC2)C1=O (configuration not stated)" target_or_test_system="ACHN renal" label=inactive

Could you check what this test reported for CCOC(=O)/C(=C\c1ccc2ccccc2c1)P(=O)(OCC)OCC ? inactive

Could you check what this test reported for CCOC(=O)c1c(C)[nH]c2ccc(O)cc12 ? inactive
